Values were extracted from PubChem BioAssay (NCI).

Tested on: MALME-3M melanoma
Experiment: NCI tumour cell line growth inhibition, 48 h
Rule: 1 for TGI not less than 40 µM, -1 for anything less.

// below: answered compounds
compound | discreteLabel
COC(=O)C1=C(C(=O)OC)SC(=C(Cl)C(=S)Nc2ccccc2O)S1 | 1
O=C(Nc1ccc2[nH]c(=S)sc2c1)Nc1ccccc1F | 1
CN(C(=O)C1CCCCCC1=O)c1ccccc1Cl (stereo unspecified) | 1
O=C(O)CCc1cccc2c1oc1c(CCC(=O)O)cccc12 | 1
CNCCNc1c2c(c(NCCNC)c3[nH]ccc13)C(=O)c1ccccc1C2=O | -1

Kindly review the next compound as well.
Request: Is TGI for COc1ccc2c(c1)Oc1cc(O)ccc1[C@@H]2c1ccccc1C(=O)NC(C)c1ccccc1 (stereo partly specified) at or above 40 µM?
Response: -1

---

Test system: T-47D breast
Experiment: NCI tumour cell line growth inhibition, 48 h
readout: GI50

molecule | experimentalResult
O=c1[nH]c(=O)c2cc(C3CC(O)C(CO)O3)ccc2[nH]1 (centres undefined) | > 100 µM
O=P(CCCCP(=O)(c1ccccc1)c1ccccc1)(c1ccccc1)c1ccccc1.[Cl][Sn]([Cl])([c]1ccccc1)[c]1ccccc1 | 0.073 µM
COc1cc(-n2cc(-c3ccc(Cl)cc3)nc2SCc2cccc(C#N)c2)cc(OC)c1OC | 21.4 µM

Switching to the query record.
Request: Bench note: what GI50 did "C=C(C)[C@@H]1CC[C@]2(C)[C@H](CC=C3[C@@H]4[C@@H](C)[C@H](C)CC[C@]4(C(N)=O)CC[C@]32C)[C@@]1(C)CCC#N" show?
Response: 2.85 µM

---

Test system: HCT-116 colon
Assay: NCI tumour cell line growth inhibition, 48 h
readout: TGI

Request: Quick check: TGI of C=CCc1ccccc1CC1(OCC)OC(=O)c2ccccc21 (stereo not given) ?
Response: > 100 µM

---

System: OVCAR-4 ovarian
Experiment: NCI tumour cell line growth inhibition, 48 h
readout: TGI

Take a look at these entries with their results.
molecule | experimentalResult
COc1cccc(N2C(=O)/C(=C\c3ccccc3)SC2c2cc(OC)c(OC)c(OC)c2)c1 (stereo unspecified) | > 100 µM
COc1ccc(NC(=O)/C(=N/NC(N)=S)C2C(=O)NC(=S)NC2=O)c(OC)c1 | > 100 µM
CCOC(=O)[C@@H]1CCN2CN(c3ccc(OC)cc3)N=C(c3ccccc3)[C@@]12c1ccccc1 | > 100 µM
C=CC[C@@]1([C@H](C=C)COCc2ccc(OC)cc2)CC[C@]2(C)OC(C)(C)[C@@H](c3ccccc3)N2C1=S | > 100 µM
c1ccc2cc3[s+]snc3cc2c1 | > 100 µM

Kindly review the next molecule as well.
Request: Could you tell me which TGI is on file for "C=C1C(=O)O[C@H]2[C@H]1CCC(/C=N/c1ncc(Br)cc1N)=C\CC[C@@]1(C)O[C@@H]21" ?
Response: 11.6 µM

---

Tested on: MALME-3M melanoma
Test: NCI tumour cell line growth inhibition, 48 h
readout: TGI

The following compounds have reported results that may help.
compound | targetOfAssay | TGI
CC(=O)C(CN(Cc1ccccc1)Cc1ccccc1)C(c1ccccc1)c1c(O)c2ccccc2oc1=O (stereo not given) | MALME-3M melanoma | > 100 µM
CC(C)(C)OC(=O)NC(CCC(=O)OCc1ccccc1)C(=O)NCCCO (stereo not given) | MALME-3M melanoma | > 100 µM
Cc1ccc2c(c1)C(C)Cc1c(Cl)ncnc1N2C (stereo not given) | MALME-3M melanoma | 6.5 µM
NC(CCC(=O)NC(CSC(=O)N(O)c1ccccc1)C(=O)NCC(=O)O)C(=O)O (stereo not given) | MALME-3M melanoma | > 1000 µM
CC(C)=c1sc(=C(C)C)c2c1=NC(C)(C)N=2 | MALME-3M melanoma | > 100 µM

Request: Form field - read-out: TGI; system: MALME-3M melanoma; submitted item: "COc1cccc2c1C(=O)c1c(O)c3c(c(O)c1C2=O)C[C@@](O)(C(=O)CO)C[C@@H]3O[C@H]1C[C@H](N)[C@@H](O)[C@H](C)O1"
Response: 0.718 µM

Request: // fetch MALME-3M melanoma TGI for CN1C(=O)C(CC(=O)O)NC1=S (stereo not given)
Response: > 100 µM

Request: Form field - read-out: TGI; system: MALME-3M melanoma; submitted item: "N#Cc1cc(-c2nc3c(F)cccc3s2)ccc1N"
Response: > 100 µM

Request: Form field - read-out: TGI; system: MALME-3M melanoma; submitted item: "CC(C)(CN1CCCCC1)C(=O)/C=C/c1ccc(Cl)cc1"
Response: 18.9 µM

Request: Which TGI is reported with MALME-3M melanoma for this entry: "COc1cc([C@H]2CC(=O)C[C@H](c3cc(OC)c(OC)c(OC)c3)C23C(=O)c2ccccc2C3=O)cc(OC)c1OC" ?
Response: > 100 µM

Request: Given the entry O=C1C=CC2(O)OCCN(CCO)C2=C1 (stereo not given) (tested in a mixture with another compound) , what TGI was observed with MALME-3M melanoma?
Response: > 100 µM

Request: Form field: TGI recorded for "C[N+]1(C)C/C(=C\c2ccccc2)C(=O)/C(=C/c2ccccc2)C1" with MALME-3M melanoma (enter value)
Response: > 100 µM

Request: Provide value of TGI for this record tested with MALME-3M melanoma: CN(C)CC1CCCC(CN(C)C)C1=NOC(=O)c1ccccc1 (stereo not given)
Response: > 100 µM

---

Tested on: MCF7 breast
Experiment: NCI tumour cell line growth inhibition, 48 h; in the data active means GI50 below about 0.43 µM; inactive means the rest
Entry note: the call must match one of active, inactive

compound | discreteLabel
CCN1Cc2c(ccc(F)c2C#N)O[C@@H](C)CNC(=O)c2c(N)nn3ccc1nc23 | inactive

Request: Which result was noted for this compound in the test: "COc1cc(/C=C/C(=O)c2c(C)nc3ccccc3c2/C=C/c2ccc(C)cc2)cc(OC)c1OC"
Response: inactive

Request: Record request — test call for "COc1ccc(S(=O)(=O)Nc2cc(/C=C\c3cc(OC)c(OC)c(OC)c3)ccc2OC)cc1"
Response: active

Request: Look up the recorded call for "Cc1cc2[nH]c(=O)c3c4ccccc4cn3c2cc1C" in this test.
Response: inactive

---

Test system: RPMI-8226 leukemia
Assay: NCI tumour cell line growth inhibition, 48 h; in the data active = GI50 below about 0.43 µM; inactive = the rest
Return exactly one item of 1 = active, -1 = inactive

compound | discreteLabel
CC1(C)OC(CP(c2ccccc2)c2ccccc2)C(CP(c2ccccc2)c2ccccc2)O1 (centres undefined) | -1
CCC[CH2][Sn]([CH2]CCC)([CH2]CCC)[O]C(=O)c1ccc(Cl)cc1Cl | 1
N#CC1=C(N)Oc2c(sc3c(Br)cccc23)C1c1ccc(Br)cc1 (centres undefined) | -1
COc1ccccc1N1CCN(CCc2c[nH]c3cc4c(cc23)OCO4)CC1 | -1
CCCCCCCCCCC(C(O)c1ccccc1)N1CCCCC1 (centres undefined) | -1
COC(=O)CCC1CCC(c2cc(F)ccc2F)(S(=O)(=O)c2ccc(Cl)cc2)CC1 (centres undefined) | -1
O=c1[nH]c(=O)c2cc(C3CC(O)C(CO)O3)ccc2[nH]1 (centres undefined) | -1
OC(CNCC1CCCO1)Cn1c2ccc(Cl)cc2c2cc(Cl)ccc21 (centres undefined) | -1

Please find the next compound below.
Request: What call does the record list for "COc1cc(NC(=O)CSc2nc3ccc(C)cc3c(=O)n2Cc2ccccc2)cc(OC)c1OC" ?
Response: -1

---

System: RXF-631 renal
Experiment: NCI tumour cell line growth inhibition, 48 h
readout: TGI

Request: For "O=C(O)CNS(=O)(=O)c1ccc(NC(=O)CI)cc1" , what is its reported TGI?
Response: 32.5 µM

Request: Given the compound "Cc1ccc(NC(=O)C(=O)CC(=O)c2c(C)n([O-])c3ccccc3[n+]2=O)cc1" , what is its reported TGI?
Response: > 100 µM

Request: Look up TGI for this compound: Fc1ccccc1C1SCc2nc3ccccc3n21 (stereo not given)
Response: > 100 µM

Request: So what does the record say about TGI for "O=C(NCCCCCCNC(=O)OCCSCCn1cc(C(=O)NC(=O)OCc2ccccc2)c(=O)[nH]c1=O)OCCSCCn1cc(C(=O)NC(=O)OCc2ccccc2)c(=O)[nH]c1=O" ?
Response: > 100 µM

Request: Data request, read-out TGI, for CCCCCCCCCCCCCCCCOCC(CP(=O)([O-])OCC[n+]1ccccc1)OC (stereo not given)
Response: 28.9 µM

---

Test system: SNB-75 CNS
Experiment: NCI tumour cell line growth inhibition, 48 h
This section presents compounds with their documented TGI values.
Please respond with the number in µM and leave the unit unwritten.

Request: Quick one: TGI for "Oc1[nH]c2c(Br)cccc2c1C1=Nc2ccccc2/C1=N/OCCN1CCCC1" ?
Response: 3.64

Request: Endpoint output: TGI of CN(C)CC1C(=O)O[C@H]2[C@H]1CC/C(COC(=O)c1cc3ccccc3[nH]1)=C\CC[C@@]1(C)O[C@@H]21 (stereo not given in full) . Value?
Response: 10.4

Request: For the compound CCOc1cc2c(cc1O)CC[C@@H]1[C@@H]2CC[C@]2(C)C(N)CC[C@@H]12 (stereo not given in full) , what TGI is on record?
Response: 6.48

Request: If you can, please state the reported TGI value of "CCC[CH2][Sn]([CH2]CCC)([CH2]CCC)[O]C(=O)c1ccc(Cl)cc1Cl" .
Response: 0.248
